What growth inhibition was measured for each of the following?
PROTOCOL TEXT: NCI Yeast Anticancer Drug Screen. Data for the cln2 rad14 strain (AID 165);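 also: 0% = growth equal to vehicle treated cultures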
ASSAY CONTEXT: S. cerevisiae cln2 rad14 strain, at 50.0 µM, hits give high values
The panel holds about 79,000 compounds, 15% with a hit somewhere; the sample as a whole holds those more often.
// return numeric value only (unit: %, not printed)

Data request, read-out growth inhibition, for `Cc1ccc(S(=O)(=O)Oc2c(Br)cc(-c3ccccc3)cc2Br)cc1` 6.65

Repeat with `CCCCn1c(=O)c2c(ncn2C)n(C)c1=O` -9.25

Now give it for `CC(C)CC(F)(C(N)=O)C(N)=O` too. -3.05

Further, for `CCN(CC)Cc1cc(Nc2ccnc3ccc4nn(C)nc4c23)ccc1O` ? 4.45

Also check `CCOC(=O)Nc1c2ccccc2c(NC(=O)OCC)c2ccccc12` 12.8

And for `OCCc1ccc2ccccc2c1` ? -9.3

Likewise for `ClC(Cl)C1OCCCO1` ? -41.1

Continue with `Cc1ccccc1NC(=O)C(=O)Cc1nc2ccccc2s1` 11.8

Next record, please: CC1CSC(C)(C)C(=O)N1 (stereo not drawn) -26.8

Now the same for `Cc1ccc(S(=O)(=O)CCOC(=O)Nc2ccccc2)cc1` -12.4

Also check `CCOCN1COCN(C)C1=O` 13.3

Another compound to look at: `O=S(=O)(SC1=NCCN1)c1ccc2ccccc2c1` 6.65

Now give it for `Cc1cnc2c(N)nc(-c3ccccc3)nc2n1` too. -39.4

----------
PROTOCOL TEXT: NCI Yeast Anticancer Drug Screen. Data for the cln2 rad14 strain (AID 165);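 also: 0% = growth equal to vehicle treated cultures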
ASSAY CONTEXT: S. cerevisiae cln2 rad14 strain, at 50.0 µM, hits give high values
This is part of a sample that, as a whole, favours compounds with a hit. Of some 79,000 tested, about 15% had one in any assay.
ASSAY METRIC: growth inhibition (%)
Kindly answer with a numeric value in %, unit omitted.

Would you kindly share the measured growth inhibition for `COc1ccc(-c2onc(-c3ccc([N+](=O)[O-])cc3)c2C2=NCCCN2)cc1` ? 12.7

Next record, please: `Cc1cc2cc3c(C)cc(=O)oc3c(C)c2o1` -8.35

Query `CC(=O)OCCOc1ccccc1Cl` next -16.9

Request: `O=P(OC1=NCCN1Cc1ccccc1)(OC1=NCCN1Cc1ccccc1)N1CC1` 32.4

Now consider CCOC(=O)C1C(c2ccc(N(C)C)cc2)c2cc3c(cc2OC1(C)N1CCCC1)OCO3 (stereo unspecified) and answer again. 14.3

Do the same for `CC1=NN(C(=O)c2ccccc2O)C(=O)/C1=C/c1cccc([N+](=O)[O-])c1` please 28.1

Same question, `CCc1ccc(C(C)=O)cc1` this time 3.5

Same question, `Cc1ccc(C(=O)N/N=C/c2ccc(N(C)C)cc2Cl)cc1` this time 22.9

Now give it for `COc1ccc(C(=O)Oc2ccccc2C)cc1` too. -11

Here is the next molecule: O=C(O)C(CO)C(CO)C(=O)O (stereo unspecified) -14.7

Cool, now `Cc1cc(=O)[nH]c(-n2[nH]c(C)c(CCO)c2=O)n1` 19.9

Cool, now Cc1ccc(S(=O)(=O)NC(C)C(=O)O)cc1 (stereo unspecified) 3.2

Same question for `COC(=O)CCSC(=S)NCc1ccccc1` please. -222

What would you report for `c1ccc(-c2nc3ncncc3[nH]2)cc1` ? -13.8

// same read-out, input: `C=CCOC(=O)Oc1ccc(Cl)cc1Cl` -10.3

Check `N=C(N)c1ccc(N=Nc2ccc(N)cc2N)cc1` too. 12.8

// query: `Nc1cccc(C(=O)Nc2ccc3c(O)cc(S(=O)(=O)O)cc3c2)c1` -30.4

Same thing, different molecule: `CCCCCSCCC(=O)O` 4.25

Entry O=C(O)C1COCOC1c1ccccc1 (stereo unspecified) please -14.9

// same read-out, input: CC1(C)OC(CP(=O)(c2ccccc2)c2ccccc2)C(CP(=O)(c2ccccc2)c2ccccc2)O1 (stereo unspecified) 18.2

Query O=c1nc(NC2CC2)ccn1C1OC(CO)C(O)C1O (stereo unspecified) next -0.25

Another molecule: `COC1=NCc2ccccc2-c2ccccc21` 8.55

How about `CCCCCc1c2nc(c(CCCCC)c3ccc([nH]3)c(CCCCC)c3ccc([nH]3)c(CCCCC)c3nc1C=C3)C=C2` ? 23.1

// repeat for `CC[N+](CC)(CC)CC(=O)c1ccc(Br)cc1` and report -0.35

Check `C[CH2][Sn]([CH2]C)([O]C(=O)c1ccc(OC)c(OC)c1OC)[O]C(=O)c1ccc(OC)c(OC)c1OC` too. 28.3

`CCC(=O)C(=O)c1ccccc1` ? -2.35

Then `O=C(Cc1cc2c(cc1[N+](=O)[O-])OCO2)c1c[nH]c2ccc(Br)cc12` ? 18.5

Here is the next molecule: O=C1OC2c3ccccc3CC1C2CO (stereo unspecified) 9.25

Likewise for O=C1/C(=C/c2ccc(Cl)cc2)CCC1CCN1CCOCC1 (stereo unspecified) ? 60

Also `COc1cc2cnc(-c3ccncc3)c(N)c2cc1OC` , if possible. 24.6

Can you check O=C1OC(C(Cl)(Cl)Cl)Nc2ccccc21 (stereo unspecified) next? 15.6

What do we get for `COC(C[P+](Cc1ccccc1)(c1ccccc1)c1ccccc1)OC` ? 2.4

Entry `COc1ccc(NC(=S)N=Nc2c(O)[nH]c3ccccc23)cc1` please -13.8

# iterate: `CN=C1Nc2ccc(Cl)cc2C(c2ccccc2)=NN1C` 11.3

What about `CN1C(=O)N(C)C2(CCN(CCCCCCF)CC2)C1=O` ? -6.9

Try `CCCCc1c(O)c2c(=O)n(C)c(=O)n3c4ccccc4n(c1=O)c23` next. -22.1

Would you kindly repeat that for Cc1ccc(N=NC(C2=NC(=O)CS2)c2nc3ccccc3[nH]2)cc1 (stereo unspecified) ? -44.8

Please give the result for OC1CCC(C#CC#CC2CCC(O)CC2)CC1 (stereo unspecified) too. 2.25

What do you have for CC(=O)OCC1OC(n2c(C)c(C(C)=O)c(-c3cccc4ccccc34)c(C#N)c2=S)C(OC(C)=O)C(OC(C)=O)C1OC(C)=O (stereo unspecified) ? 22.1

Also need OCC(O)C(O)C(O)CN=Cc1ccccc1O (stereo unspecified) , thanks. -7.8

What do you get for `CC=C/C=C/[C@@H]1O[C@](O)([C@H](CC)C(=O)NC/C=C/C=C(\C)[C@@H](OC)[C@@H](C)[C@@H]2O[C@H](/C=C/C=C/C=C(\C)C(=O)c3c(O)cc[nH]c3=O)[C@H](O)[C@@H]2O)[C@H](O)[C@H](O)C1(C)C` ? 36.2

Same for `CC(=O)OCc1ccc(C)c(COC(C)=O)c1` 3.8

Entry to check: CC(=O)Oc1ccc(C2COc3cc(OC(C)=O)c(OC(C)=O)cc3C2)cc1 (stereo unspecified) 9.4

Would you mind doing COc1ncn(C2CC(OC(=O)c3ccc(C)cc3)C(COC(=O)c3ccc(C)cc3)O2)c(=O)n1 (stereo unspecified) as well? -22.4

Same question, `CCCNC(=O)Nc1ccc2c(c1)Cc1cc([N+](=O)[O-])ccc1-2` this time -42

Repeat for the following molecule: CCOC(OCC)C(=O)NC(C)c1ccc(O)c(OC)c1 (stereo unspecified) -12.2
